Data credit: PubChem BioAssay (NCI)

Assay: NCI Yeast Anticancer Drug Screen. Data for the sgs1 mgt1 strain (AID 161);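 further: 0% = growth of cultures given vehicle only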
Details: S. cerevisiae sgs1 mgt1 strain, at 50.0 µM, hits give high values
This is part of a sample that, as a whole, favours compounds with a hit. Of some 79,000 tested, about 15% had one in any assay.
Measured growth inhibition by item
Give the quantity in %, number only.

**Q:** Any idea what its growth inhibition is? The compound is COc1ccc(N=Nc2c(C)c(C#N)c(=S)n(C3OC(COC(C)=O)C(OC(C)=O)C(OC(C)=O)C3OC(C)=O)c2-c2ccccc2)cc1 (configuration not stated)
**A:** -20.6

**Q:** Fill in: growth inhibition of COC(=O)c1nc(=S)[nH]c(C(=O)OC)c1C(=O)c1cccc2ccccc12 is ___
**A:** 4.35

**Q:** Report growth inhibition for Cc1nc2cccc3ccc4cc5ccccc5c1c4c32 please.
**A:** 16.1

**Q:** Item under review: CCOC(=O)c1[nH]c(C(=O)O)c(C(=O)OCC)c1C . Reported growth inhibition?
**A:** 4.85

**Q:** Dear colleague, I am looking for the recorded growth inhibition of the following compound: C[N+]([O-])=C(c1ccccc1)c1ccccc1
**A:** -9.4

**Q:** Requested read-out: growth inhibition. Entry: COC(=O)Cc1c(C(=O)OC)c(O)cc(O)c1C(=O)OC
**A:** -10.2

**Q:** // growth inhibition lookup, key: Cc1[nH]c2ccc(C(=O)NN)cc2c1CC(=O)NN
**A:** 14.8

**Q:** Recorded growth inhibition for Clc1ccc(C2OCCCO2)cc1 , please?
**A:** -9.7

**Q:** # input compound: O=C(O)c1c(Cl)ccc([N+](=O)[O-])c1Cl ; wanted: its growth inhibition
**A:** -8.95

**Q:** What value of growth inhibition has been recorded for this entry: COc1cc2c(cc1OC)C(c1ccc([N+](=O)[O-])c(C)c1)=NCC2
**A:** 39.5

###

Assay: NCI Yeast Anticancer Drug Screen. Data for the rad50 strain (AID 155);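 further: 0% = growth of vehicle-only cultures of the same strain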
Conditions: S. cerevisiae rad50 strain growth inhibition; at 50.0 µM; hits give high values
Compounds without any hit were thinned out: in the full panel of roughly 79,000, 15% have a hit.
experimental.readout: growth inhibition (%)
Supply the numeric figure in %, leaving out any unit text.

CCO/C=N\C1=C(C#N)SC2=N/C(=C\c3ccco3)C(=O)N21 = 6.1
COc1ccc(NC(=O)c2c(Br)c(Br)c(Br)c(Br)c2C(=O)O)c(Cl)c1 = 92.5
O=C(O)C1C(C(=O)O)C2C3C4C1C1C2C3C41 (stereo not drawn) = 2.9

**Q:** Form field: reported growth inhibition of COCCOCc1nc(C#N)c(N)o1
**A:** -6.6

**Q:** Item under review: c1ccnnc1 . Reported growth inhibition?
**A:** 15.9

**Q:** Any idea what growth inhibition was measured for O=P1(c2ccccc2)C(c2ccccc2)=CC=C1c1ccccc1 ?
**A:** 23.4

**Q:** Would you kindly share the measured growth inhibition for O=c1[nH]cnc2c1sc(=S)n2-c1ccccc1 ?
**A:** 7.15

**Q:** Query (compound): CCOC(=O)CC(CSCP(=O)(OCC)OCC)C(=O)OCC (stereo not drawn) ; field requested: growth inhibition
**A:** 5.15

###

Test: NCI Yeast Anticancer Drug Screen. Data for the mec2-1 strain (AID 157)
Settings: S. cerevisiae mec2-1 strain, at 50.0 µM, hits give high values
The panel holds about 79,000 compounds, 15% with a hit somewhere; the sample as a whole holds those more often.
growth inhibition values, listed per item
Expressed in %, but write only the number.

Sample answers from the record:
Cc1nc(Br)c([N+](=O)[O-])[nH]1 = -6.4
CCCCCCCCCCCCCCCCCN(C)C(=O)OCC = -62.5
COc1ccc(/C=C(\CC(=O)c2ccc(Cl)cc2)C(=O)O)cc1 = -8.85
OCCN(CCO)c1ccc2c(C(F)(F)F)cc(C(F)(F)F)nc2n1 = -8.25

**Q:** Could you share which growth inhibition value was measured for CCOC(=O)CCC(NC(=O)c1ccc(Nc2nc3ccccc3nc2C(=O)OCC)cc1)C(=O)OCC (stereo unspecified) ?
**A:** 2.55

**Q:** Reported growth inhibition, compound O=C(NNC(=O)OCc1ccccc1)OCc1ccccc1 : ____
**A:** -2.75
